Reported IC50 for target or system PARLSkd3 (human CLPB) (Homo sapiens), by entry.

compound-string: Nc1ncnc2c1ncn2[C@@H]1O[C@H](COP(=O)(O)OP(=O)(O)O)[C@@H](O)[C@H]1O
IC50: ~1200 µM

Now consider a different compound.
Request: Any idea what its IC50 is? The compound is `Nc1ncnc2c1ncn2[C@@H]1O[C@H](CO[P@](=O)(O)O[P@](=O)(O)O[P@@](=O)(O)S)[C@@H](O)[C@H]1O`
Result: ~242 µM
